target: M497A mutant hTRPV6 (Homo sapiens, UniProt Q9H1D0, M537A); construct: Full-length wild-type or mutant human TRPV6 was expressed in HEK 293S cells as described above; expressed in transfected cells; host or cells: HEK 293S GnTI- (baculovirus/BacMam transduction); assay: Fura-2 AM Ca2+ uptake, M497A mutant hTRPV6; assay type: cell-based
Sequence (Q9H1D0 41-765 M537A limits assumed): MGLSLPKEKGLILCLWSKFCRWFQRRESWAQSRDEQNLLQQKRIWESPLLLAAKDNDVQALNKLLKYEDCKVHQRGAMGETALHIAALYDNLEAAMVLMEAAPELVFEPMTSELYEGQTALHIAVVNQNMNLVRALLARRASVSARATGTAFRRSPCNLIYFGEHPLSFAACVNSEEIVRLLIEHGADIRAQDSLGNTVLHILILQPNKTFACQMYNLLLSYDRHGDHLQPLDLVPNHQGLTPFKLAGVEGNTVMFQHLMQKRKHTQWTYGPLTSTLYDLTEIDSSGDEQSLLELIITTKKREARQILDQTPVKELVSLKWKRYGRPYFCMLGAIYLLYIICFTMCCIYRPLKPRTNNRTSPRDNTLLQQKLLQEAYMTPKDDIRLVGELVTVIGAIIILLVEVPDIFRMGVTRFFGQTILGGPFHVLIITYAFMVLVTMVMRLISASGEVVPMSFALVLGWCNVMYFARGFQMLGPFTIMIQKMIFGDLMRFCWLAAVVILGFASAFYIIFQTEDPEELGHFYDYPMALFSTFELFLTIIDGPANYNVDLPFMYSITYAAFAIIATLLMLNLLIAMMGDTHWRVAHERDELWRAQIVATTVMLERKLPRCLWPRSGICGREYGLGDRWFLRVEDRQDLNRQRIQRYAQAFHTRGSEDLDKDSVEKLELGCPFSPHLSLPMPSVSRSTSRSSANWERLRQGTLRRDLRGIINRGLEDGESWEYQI
EXPERIMENTAL READOUT: pIC50
Scale: pIC50 equals -log10([C]), with [C] in mol/L.

INPUT: Quick check: pIC50 of CCCc1cc(O)c2c(c1)OC(C)(C)[C@@H]1CCC(C)=C[C@@H]21 [THCV, tetrahydrocannabivarin] ?
OUTPUT: 4.01
